Dear all, this message contains IC50 results, target or system Pol theta (1-899) (Homo sapiens (Human), UniProt O75417).
Reported property: IC50

INSERT INTO measurements (given_smiles, tested_system, reported_property, endpoint_value) VALUES
  ('COc1ccccc1-c1cc(C)ncc1C(=O)Nc1nnc(OCc2ccc(Cl)c3[nH]ncc23)s1', 'Pol theta (1-899) (Homo sapiens (Human), UniProt O75417)', 'IC50', '≤ 200 nM'),
  ('COc1ccccc1-c1cc(C#N)ncc1C(=O)Nc1nnc(OCc2ccc(Cl)cc2)s1', 'Pol theta (1-899) (Homo sapiens (Human), UniProt O75417)', 'IC50', '≤ 200 nM'),
  ('COc1ccccc1-c1cc(C)ncc1C(=O)Nc1nnc(OCCc2ccc(Cl)cn2)s1', 'Pol theta (1-899) (Homo sapiens (Human), UniProt O75417)', 'IC50', '200 to 500 nM'),
  ('N#Cc1ccccc1-n1cncc1C(=O)Nc1nnc(OCc2ccc(Cl)cc2)s1', 'Pol theta (1-899) (Homo sapiens (Human), UniProt O75417)', 'IC50', '200 to 500 nM'),
  ('O=C(Nc1nnc(OCc2ccc(Cl)cc2)s1)c1cnccc1-c1ccccc1OC1CC1', 'Pol theta (1-899) (Homo sapiens (Human), UniProt O75417)', 'IC50', '≤ 200 nM'),
  ('CC(=O)N1CCN(c2ncccc2C(=O)Nc2nnc(OCc3ccc(Cl)cc3)s2)CC1', 'Pol theta (1-899) (Homo sapiens (Human), UniProt O75417)', 'IC50', '1000 to 10000 nM'),
  ('O=C(Nc1nnc(OCc2ccc(Cl)cn2)s1)c1cccnc1N1CCS(=O)(=O)CC1', 'Pol theta (1-899) (Homo sapiens (Human), UniProt O75417)', 'IC50', '1000 to 10000 nM'),
  ('O=C(Nc1nnc(OCc2ccc(Cl)cc2)s1)c1cccnc1N1CCOCC1', 'Pol theta (1-899) (Homo sapiens (Human), UniProt O75417)', 'IC50', '500 to 1000 nM'),
  ('COc1ccccc1-n1nncc1C(=O)Nc1nnc(OCc2ccc(F)cc2)s1', 'Pol theta (1-899) (Homo sapiens (Human), UniProt O75417)', 'IC50', '≤ 200 nM'),
  ('COc1ccccc1-c1ccncc1C(=O)Nc1nnc(OCc2ccc(Br)cn2)s1', 'Pol theta (1-899) (Homo sapiens (Human), UniProt O75417)', 'IC50', '≤ 200 nM'),
  ('O=C(Nc1nnc(OCc2ccc(Cl)cc2)s1)c1ccncc1N1C2CCC1COC2', 'Pol theta (1-899) (Homo sapiens (Human), UniProt O75417)', 'IC50', '≤ 200 nM'),
  ('O=C(Nc1nnc(OCc2ccc(Cl)cc2)s1)c1cccnc1C1CCOCC1', 'Pol theta (1-899) (Homo sapiens (Human), UniProt O75417)', 'IC50', '500 to 1000 nM'),
  ('O=C(Nc1nnc(OCc2ccc(Cl)cc2)s1)c1cncn1-c1ccccc1', 'Pol theta (1-899) (Homo sapiens (Human), UniProt O75417)', 'IC50', '500 to 1000 nM'),
  ('O=C(Nc1nnc(OCc2ccc(Cl)cc2)s1)c1cncn1-c1ccncc1', 'Pol theta (1-899) (Homo sapiens (Human), UniProt O75417)', 'IC50', '500 to 1000 nM'),
  ('O=C(Nc1nnc(OCc2ccc(Cl)cc2)s1)c1ccncc1-c1cccc2ncoc12', 'Pol theta (1-899) (Homo sapiens (Human), UniProt O75417)', 'IC50', '≤ 200 nM'),
  ('COc1ccccc1-c1cc(C)ncc1C(=O)Nc1nnc(OCc2cc(F)ccn2)s1', 'Pol theta (1-899) (Homo sapiens (Human), UniProt O75417)', 'IC50', '200 to 500 nM'),
  ('O=C(Nc1nnc(OCc2ccc(Cl)cc2)s1)c1cccnc1N1CCCOCC1', 'Pol theta (1-899) (Homo sapiens (Human), UniProt O75417)', 'IC50', '200 to 500 nM'),
  ('CN1CCOc2c(-c3cnccc3C(=O)Nc3nnc(OCc4ccc(Cl)cc4)s3)cccc21', 'Pol theta (1-899) (Homo sapiens (Human), UniProt O75417)', 'IC50', '≤ 200 nM');

* * *

- Tested system: Pol theta (1-899) (Homo sapiens (Human))
pIC50: −log10 of the molar value.
Examples of molecules with documented pIC50 follow.
Reported property: pIC50

INSERT INTO measurements (molecule, endpoint_value) VALUES
  ('COc1ccccc1-c1cn2ccnc2cc1C(=O)Nc1nnc(OCc2ccc(Cl)cc2)s1', '≥ 6.70'),
  ('O=C(Nc1nnc(OCc2ccc(Cl)cc2)s1)c1cccnc1N1CCN2C(=O)CC[C@H]2C1 (single isomer, unassigned)', '5.00 to 6.00'),
  ('O=C(Nc1nnc(OCc2ccc(Cl)cn2)s1)c1cncn1-c1ccccc1Cl', '6.30 to 6.70'),
  ('O=C(Nc1nnc(OCc2ccc(Cl)cc2)s1)c1ccncc1-c1cccc2[nH]ncc12', '≥ 6.70'),
  ('N#Cc1ccc(C(=O)Nc2nnc(OCc3ccc(Br)cc3)s2)c(N2CCOC3(CC3)C2)n1', '≥ 6.70'),
  ('Cc1cc(-c2ccccc2OC(F)F)c(C(=O)Nc2nnc(OCc3ccc(Cl)cn3)s2)cn1', '≥ 6.70'),
  ('N#Cc1ccc(OC2COC2)c(-c2cnccc2C(=O)Nc2nnc(OCc3ccc(Cl)cc3)s2)c1', '≥ 6.70'),
  ('O=C(Nc1nnc(OCc2ccc(Cl)cc2)s1)c1cnccc1N1CCN(CCN2CCOCC2)C(=O)C1', '6.00 to 6.30');

* * *

Examples of molecules with documented IC50 follow.
- Tested system: Pol theta (1-899) (Homo sapiens (Human), UniProt O75417)
- Sequence (O75417 1-899): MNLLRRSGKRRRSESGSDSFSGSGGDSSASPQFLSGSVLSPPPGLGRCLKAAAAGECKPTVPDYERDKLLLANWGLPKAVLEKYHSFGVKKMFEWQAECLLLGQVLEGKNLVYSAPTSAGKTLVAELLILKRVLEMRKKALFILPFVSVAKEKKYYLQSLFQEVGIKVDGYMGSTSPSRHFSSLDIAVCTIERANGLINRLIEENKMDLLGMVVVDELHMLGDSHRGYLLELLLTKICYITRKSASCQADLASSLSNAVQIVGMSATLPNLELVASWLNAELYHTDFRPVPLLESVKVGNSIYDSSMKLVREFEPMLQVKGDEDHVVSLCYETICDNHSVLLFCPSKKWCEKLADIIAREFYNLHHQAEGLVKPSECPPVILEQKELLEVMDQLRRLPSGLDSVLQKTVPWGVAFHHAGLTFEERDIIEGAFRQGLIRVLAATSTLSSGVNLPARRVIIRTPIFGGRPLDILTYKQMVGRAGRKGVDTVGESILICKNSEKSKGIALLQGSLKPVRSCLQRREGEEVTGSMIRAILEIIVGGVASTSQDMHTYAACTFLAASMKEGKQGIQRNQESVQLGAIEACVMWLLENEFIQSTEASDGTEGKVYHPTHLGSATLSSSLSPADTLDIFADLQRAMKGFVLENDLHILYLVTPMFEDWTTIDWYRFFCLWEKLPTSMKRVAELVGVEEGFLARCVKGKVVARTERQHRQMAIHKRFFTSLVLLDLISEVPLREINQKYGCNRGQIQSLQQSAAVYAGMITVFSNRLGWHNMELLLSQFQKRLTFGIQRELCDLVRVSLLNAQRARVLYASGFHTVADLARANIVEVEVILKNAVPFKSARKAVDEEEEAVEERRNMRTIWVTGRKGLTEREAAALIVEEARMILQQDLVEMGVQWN
Reported property: IC50

INSERT INTO assay_data (given_smiles, endpoint_value) VALUES
  ('O=C(Nc1nnc(OCc2ccc(Cl)cc2)s1)c1cccnc1-c1cc[nH]c(=O)c1', '500 to 1000 nM'),
  ('COc1cc(-c2ccccc2OC)c(C(=O)Nc2nnc(OCc3ccc(Cl)cn3)s2)cn1', '≤ 200 nM'),
  ('COc1ccccc1-c1ncccc1C(=O)Nc1nnc(OCc2ccc(Cl)cc2)s1', '1000 to 10000 nM'),
  ('O=C(Nc1nnc(OCc2ccc(Cl)cc2)s1)c1ccncc1-c1cccc2nsnc12', '≤ 200 nM'),
  ('O=C(Nc1nnc(OCc2ccc(F)cc2)s1)c1cccnc1N1CCOCC1', '1000 to 10000 nM'),
  ('NC(=O)c1ccc(C(=O)Nc2nnc(OCc3ccc(Cl)cc3)s2)c(N2CCOCC2)n1', '1000 to 10000 nM'),
  ('Cc1cc(-c2ccccc2CO)c(C(=O)Nc2nnc(OCc3ccc(Cl)cn3)s2)cn1', '≤ 200 nM'),
  ('COc1ccccc1-c1cc(CCC#N)ncc1C(=O)Nc1nnc(OCc2ccc(Cl)cc2)s1', '≤ 200 nM'),
  ('COc1ccccc1-c1ccncc1C(=O)Nc1nnc(OCc2ccc(Cl)cn2)s1', '≤ 200 nM'),
  ('N#Cc1cc(N2CCOC3(CC3)C2)c(C(=O)Nc2nnc(OCc3ccc(Cl)cc3)s2)cn1', '≤ 200 nM'),
  ('O=C(Nc1nnc(OCc2ccc(Cl)cc2)s1)c1cccnc1N1CCOc2ccccc21', '1000 to 10000 nM'),
  ('C[C@H]1COC[C@H](C)N1c1cnccc1C(=O)Nc1nnc(OCc2ccc(Cl)cn2)s1', '≤ 200 nM');

* * *

Dear all, this message contains pIC50 results, target or system Pol theta (1-899) (Homo sapiens (Human), UniProt O75417).
pIC50: −log10 of the molar value.
Reported property: pIC50

INSERT INTO measurements (compound, endpoint_value) VALUES
  ('Cc1n[nH]cc1-c1cnccc1C(=O)Nc1nnc(OCc2ccc(Cl)cc2)s1 [Example 162]', '≥ 6.70'),
  ('O=C(Nc1nnc(OCc2ccc(Cl)cn2)s1)c1ccnn1-c1ccccc1 [Example 24]', '5.00 to 6.00'),
  ('N#Cc1ccc(C(=O)Nc2nnc(OCc3ccc(Br)cc3)s2)c(N2CCNC(=O)C2)n1 [Example 88]', '≥ 6.70'),
  ('CNC(=O)c1cc(N2CCNC(=O)CC2)c(C(=O)Nc2nnc(OCc3ccc(Cl)cc3)s2)cn1 [Example 87]', '6.00 to 6.30');

* * *

Dear all, this message contains pIC50 results, target or system Pol theta (1-899) (Homo sapiens (Human)).
pIC50: −log10 of the molar value.
Reported property: pIC50

INSERT INTO measurements (given_smiles, reported_property, endpoint_value) VALUES
  ('O=C(Nc1nnc(OCc2ccc(Cl)cc2)s1)c1ccncc1N1CCCn2nccc21', 'pIC50', '≥ 6.70'),
  ('Cc1cc(-c2cccc3c2OC(F)(F)O3)c(C(=O)Nc2nnc(OCc3ccc(Cl)cn3)s2)cn1', 'pIC50', '≥ 6.70'),
  ('COc1cccc(Cl)c1-c1cnccc1C(=O)Nc1nnc(OCc2ccc(Cl)cc2)s1', 'pIC50', '≥ 6.70'),
  ('C[C@H]1COC[C@H](C)N1c1cnccc1C(=O)Nc1nnc(OCc2ccc(Cl)cc2)s1', 'pIC50', '≥ 6.70'),
  ('COc1cccc(F)c1-c1cnccc1C(=O)Nc1nnc(OCc2ccc(Cl)cc2)s1', 'pIC50', '≥ 6.70'),
  ('COc1ccc(CO)cc1-c1cc(C)ncc1C(=O)Nc1nnc(OCc2ccc(Cl)cn2)s1', 'pIC50', '≥ 6.70'),
  ('COc1ccccc1-c1ccncc1C(=O)Nc1nnc(OCc2ccc(Cl)cc2)s1', 'pIC50', '≥ 6.70'),
  ('COc1cccc(OC)c1-c1ccncc1C(=O)Nc1nnc(OCc2ccc(Cl)cc2)s1', 'pIC50', '6.00 to 6.30'),
  ('O=C(Nc1nnc(OCc2ccc(Cl)cc2)s1)c1cncnc1N1CCOCC1', 'pIC50', '6.30 to 6.70'),
  ('O=C(Nc1nnc(OCc2ccc(Cl)cc2)s1)c1ccncc1-c1c(F)cccc1OC1COC1', 'pIC50', '≥ 6.70'),
  ('Cc1cn[nH]c1-c1cnccc1C(=O)Nc1nnc(OCc2ccc(Cl)cc2)s1', 'pIC50', '6.30 to 6.70'),
  ('COc1cc(F)ccc1-c1ccncc1C(=O)Nc1nnc(OCc2ccc(Cl)cc2)s1', 'pIC50', '≥ 6.70'),
  ('COc1cc(N2CCOCC2)c(C(=O)Nc2nnc(OCc3ccc(Cl)cc3)s2)cn1', 'pIC50', '6.00 to 6.30'),
  ('O=C(Nc1nnc(OCc2cnc(Cl)cn2)s1)c1cccnc1N1CCOCC1', 'pIC50', '5.00 to 6.00'),
  ('COc1ccccc1-c1cnc(C)cc1C(=O)Nc1nnc(OCc2ccc(Cl)cn2)s1', 'pIC50', '6.30 to 6.70'),
  ('O=C(Nc1nnc(OCc2ccc(Cl)cc2)s1)c1cc(C#CCO)ncc1-c1ccccc1OC(F)F', 'pIC50', '≥ 6.70'),
  ('CC(=O)Nc1cc(N2CCOCC2)c(C(=O)Nc2nnc(OCc3ccc(Cl)cc3)s2)cn1', 'pIC50', '5.00 to 6.00');
